Kindly state pIC50 for each of the entries shown.
- system: KRAS G12C (Homo sapiens (Human), UniProt P01116+P62937, G12C)
- Sequence (P01116-2 other isoform, or with tags, fused parts or gaps G12C): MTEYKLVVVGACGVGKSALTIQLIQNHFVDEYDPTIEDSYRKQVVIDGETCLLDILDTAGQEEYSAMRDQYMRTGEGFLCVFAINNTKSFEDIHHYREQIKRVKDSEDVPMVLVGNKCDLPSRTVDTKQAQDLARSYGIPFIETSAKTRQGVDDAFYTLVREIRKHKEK
- Sequence (P62937 whole entry): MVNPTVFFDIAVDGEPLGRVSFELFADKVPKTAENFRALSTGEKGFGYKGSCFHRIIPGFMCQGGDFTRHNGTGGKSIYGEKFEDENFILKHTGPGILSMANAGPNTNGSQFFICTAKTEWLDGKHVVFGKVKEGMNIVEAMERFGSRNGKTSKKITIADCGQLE
- assay-remarks: Ras-Raf disruption/FRET/MOA assay, KRAS G12C
- Type: biochemical
- reported-conditions: read-out: KRAS G12C FRET data IC50
pIC50: −log10 of the molar value.

*Q* Fill blank: measured pIC50 of the compound CCn1c(-c2cnccc2COC)c2c3cc(ccc31)-c1cccc(c1)C[C@H](NC(=O)[C@H](C(C)C)N(C)C(=O)CCN=C=Nc1ccccc1COC)C(=O)N1CCC[C@H](N1)C(=O)OCC(C)(C)C2 is ____.
*A* 5.00 to 6.00

*Q* Which pIC50 is listed for CCn1c(-c2cccnc2COC)c2c3cc(ccc31)-c1cc(O)cc(c1)C[C@H](NC(=O)[C@H](C(C)C)N(C)C(=O)CCNC1=NCCO1)C(=O)N1CCC[C@H](N1)C(=O)OCC(C)(C)C2 ?
*A* 5.00 to 6.00

*Q* Consider the compound shown here: CCn1c(-c2cnccc2COC)c2c3cc(ccc31)-c1cc(O)cc(c1)C[C@H](NC(=O)[C@H](C(C)C)N(C)C(=O)C1CN(C(=O)[C@@H]3CN3)C1)C(=O)N1CCC[C@H](N1)C(=O)OCC(C)(C)C2 What is its recorded pIC50?
*A* 7.00 to 8.00

###

- system: KRAS G12D (Homo sapiens (Human), UniProt P01116+P62937, G12D)
- Sequence (P01116 other isoform, or with tags, fused parts or gaps G12D): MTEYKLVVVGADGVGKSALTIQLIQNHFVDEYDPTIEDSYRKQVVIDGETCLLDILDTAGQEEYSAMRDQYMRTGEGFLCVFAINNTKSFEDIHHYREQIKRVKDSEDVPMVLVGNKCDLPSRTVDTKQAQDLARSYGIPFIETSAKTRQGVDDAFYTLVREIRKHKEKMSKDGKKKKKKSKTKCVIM
- Sequence (P62937 whole entry): as the sequence (P62937 whole entry) above
- assay-remarks: Ras-Raf disruption/FRET/MOA assay (BRAF RBD, Cyclophilin A)
- Assay type: biochemical
- reported-conditions: read-out: KRAS G12D FRET IC50
pIC50: −log10 of the molar value.
Task for the reader: assign each of the following compounds its reported pIC50.

*Q* Using the record for CCn1c(-c2cccnc2[C@H](C)OC)c2c3cc(ccc31)-c1cc(O)cc(c1)C[C@H](NC(=O)[C@H](C(C)C)N(C)C(=O)C1CC(=O)N(C3CC3)C1)C(=O)N1CCC[C@H](N1)C(=O)OCC(C)(C)C2 (stereo partly drawn) , report its pIC50.
*A* 6.00 to 7.00

*Q* If you can, please state the reported pIC50 value of CCn1c(-c2cnccc2COC)c2c3cc(ccc31)-c1cc(O)cc(c1)C[C@H](NC(=O)[C@H](C(C)C)N(C)C(=O)C1CN(C)C1)C(=O)N1CCC[C@H](N1)C(=O)OCC(C)(C)C2 .
*A* 6.00 to 7.00

*Q* Entry CCn1c(-c2cccnc2[C@H](C)OC)c2c3cc(ccc31)-c1csc(n1)C[C@H](NC(=O)N1CCOCC1)C(=O)N1CCC[C@H](N1)C(=O)OCC(C)(C)C2 : reported pIC50 = ?
*A* 6.00 to 7.00

*Q* I'd like to know its pIC50. The compound in question is CCn1c(-c2cccnc2[C@H](C)OC)c2c3cc(ccc31)-c1csc(n1)C[C@H](NC(=O)[C@H](C(C)C)N(C)C(=O)N1C[C@H](C)N(C)C[C@H]1C)C(=O)N1CCC[C@H](N1)C(=O)OCC(C)(C)C2
*A* 5.00 to 6.00

*Q* So what does the record say about pIC50 for CCn1c(-c2cccnc2[C@H](C)OC)c2c3cc(ccc31)-c1csc(n1)C[C@H](NC(=O)[C@H](C(C)C)N(C)C(=O)N1CCOC[C@H]1C)C(=O)N1CCC[C@H](N1)C(=O)OCC(C)(C)C2 ?
*A* 6.00 to 7.00

*Q* Item under review: CCn1c(-c2cccnc2[C@H](C)OC)c2c3cc(ccc31)-c1cc(O)cc(c1)C[C@H](NC(=O)[C@H](C(C)C)N(C)C(=O)[C@H]1CCN(C(=O)[C@@H]3CCCN3)C1)C(=O)N1CCC[C@H](N1)C(=O)OCC(C)(C)C2 . Reported pIC50?
*A* 7.00 to 8.00

*Q* Would you kindly share the measured pIC50 for CCn1c(-c2cccnc2[C@H](C)OC)c2c3cc(ccc31)-c1csc(n1)[C@@H](OC)[C@H](NC(=O)[C@H](C(C)C)N(C)C(=O)N(C)C)C(=O)N1CCC[C@H](N1)C(=O)OCC(C)(C)C2 ?
*A* 5.00 to 6.00

*Q* Consider the compound shown here: CCn1c(-c2cccnc2[C@H](C)OC)c2c3cc(ccc31)-c1csc(n1)C[C@H](NC(=O)[C@H](C(C)C)N(C)C(=O)N1CCN3C(=O)CN(C)C[C@H]3C1)C(=O)N1CCC[C@H](N1)C(=O)OCC(C)(C)C2 What is its recorded pIC50?
*A* 6.00 to 7.00

*Q* Requested read-out: pIC50. Entry: CCn1c(-c2cccnc2COC)c2c3cc(ccc31)-c1cc(O)cc(c1)C[C@H](NC(=O)[C@H](C(C)C)N(C)C(=O)OC1COC1)C(=O)N1CCC[C@H](N1)C(=O)OCC(C)(C)C2
*A* 5.00 to 6.00

*Q* For CCn1c(-c2cccnc2[C@H](C)OC)c2c3cc(ccc31)-c1cc(O)cc(c1)C[C@H](NC(=O)C(C)Cc1ccncc1)C(=O)N1CCC[C@H](N1)C(=O)OCC(C)(C)C2 (stereo partly drawn) , what is its reported pIC50?
*A* 5.00 to 6.00

*Q* Record request: pIC50 value, item CCn1c(-c2cccnc2[C@H](C)OC)c2c3cc(ccc31)-c1csc(n1)C[C@H](NC(=O)[C@H](C(C)C)N(C)C(=O)N1CC(OC)C1)C(=O)N1CCC[C@H](N1)C(=O)OCC(C)(C)C2 [Compound A205]
*A* 6.00 to 7.00

*Q* Data request, read-out pIC50, for CCn1c(-c2cccnc2[C@H](C)OC)c2c3cc(ccc31)-c1csc(n1)C[C@H](NC(=O)[C@H](C(C)C)N(C)C(=O)N1CC3(CCN(C)C3)C1)C(=O)N1CCC[C@H](N1)C(=O)OCC(C)(C)C2
*A* 5.00 to 6.00

*Q* Would you kindly share the measured pIC50 for CCn1c(-c2cccnc2[C@H](C)OC)c2c3cc(ccc31)-c1csc(n1)C[C@H](NC(=O)[C@H](C(C)C)N(C)C(=O)N1CC[C@@]13CCCN(C)C3)C(=O)N1CCC[C@H](N1)C(=O)OCC(C)(C)C2 ?
*A* 6.00 to 7.00

*Q* # get_value(readout='pIC50', item= CCn1c(-c2cccnc2[C@H](C)OC)c2c3cc(ccc31)-c1cc(O)cc(c1)C[C@H](NC(=O)[C@H](C(C)C)N(C)C(=O)C1(C(=O)O)CC1)C(=O)N1CCC[C@H](N1)C(=O)OCC(C)(C)C2 )
*A* < 5.00

*Q* Given the compound CCn1c(-c2cccnc2[C@H](C)OC)c2c3cc(ccc31)-c1cc(O)cc(c1)C[C@H](NC(=O)[C@H](C(C)C)N(C)C(=O)[C@H]1CCN(C(C)=O)C1)C(=O)N1CCC[C@H](N1)C(=O)OCC(C)(C)C2 , what is its reported pIC50?
*A* 6.00 to 7.00

*Q* Need pIC50, item CCn1c(-c2cccnc2[C@H](C)OC)c2c3cc(ccc31)-c1csc(n1)C[C@H](NC(=O)N1CCC1)C(=O)N1CCC[C@H](N1)C(=O)OCC(C)(C)C2 [Compound A369]
*A* 5.00 to 6.00

*Q* # get_value(readout='pIC50', item= CCn1c(-c2cccnc2[C@H](C)OC)c2c3cc(ccc31)-c1cc(O)cc(c1)C[C@H](NC(=O)[C@H](C(C)C)N(C)C(=O)[C@H]1C[C@H]1O)C(=O)N1CCC[C@H](N1)C(=O)OCC(C)(C)C2 )
*A* 6.00 to 7.00

*Q* Request the reported pIC50 associated with CCn1c(-c2cccnc2[C@H](C)OC)c2c3cc(ccc31)-c1csc(n1)C[C@H](NC(=O)[C@H](C(C)C)N(C)C(=O)N1CCC[C@@H]1CN(C)C)C(=O)N1CCC[C@H](N1)C(=O)OCC(C)(C)C2
*A* 6.00 to 7.00

FYI, the data here is from patent US20250195521A1.
